Data origin: paper PMC6099693

measuredOn: LSD1 (Homo sapiens)
*1 amine or outer side, *2 acyl side, *3 side chain or, on linkers, in order; H or OH if unused. Where a SMILES comes first, the peptide text is derived from it. [ ]: non-standard residue; d: D form. Lys((1R,2S)-2-Ph-cPr) = N[C@@H](CCCCN[C@@H]1C[C@H]1c1ccccc1)C(=O)O; X1 = O=C(C1(N[*:1])C2CC3CC(C2)CC1C3)[*:2]; Ac6c = NC1(C(=O)O)CCCCC1; Aib = CC(C)(N)C(=O)O
As shown below, each of these molecules has a reported pIC50 value.
Notebook: values listed as pIC50 are -log10 of the concentration (mol/L).

Exercise: pIC50 lookup needed for C[C@H](N)C(=O)N[C@@H](CCCNC(=N)N)C(=O)NC1(C(=O)N[C@@H](CCCCN[C@@H]2C[C@H]2c2ccccc2)C(=O)NC2(C(=O)N[C@H](C(=O)N[C@@H](C)C(=O)N[C@@H](CCCNC(=N)N)C(=O)N[C@@H](CCCCN)C(=O)N[C@@H](CO)C(=O)N[C@H](C(=O)O)[C@@H](C)O)[C@@H](C)O)CCCCC2)CCCCC1 [peptide 2b] (H-AR[Ac6c][Lys((1R,2S)-2-Ph-cPr)][Ac6c]TARKST-OH; C-terminus assumed) , thanks.
Key: 7.23

Exercise: pIC50 lookup needed for C[C@H](N)C(=O)N[C@@H](CCCNC(=N)N)C(=O)N[C@H](C(=O)N[C@@H](CCCCN[C@@H]1C[C@H]1c1ccccc1)C(=O)N[C@@H](CCC(N)=O)C(=O)N[C@H](C(=O)N[C@@H](C)C(=O)N[C@@H](CCCNC(=N)N)C(=O)N[C@@H](CCCCN)C(=O)N[C@@H](CO)C(=O)N[C@H](C(=O)O)[C@@H](C)O)[C@@H](C)O)[C@@H](C)O [peptide 1, reference compound] , thanks.
Key: 6.90

Exercise: pIC50 lookup needed for C[C@H](N)C(=O)N[C@@H](CCCNC(=N)N)C(=O)NC1(C(=O)N[C@@H](CCCCN[C@@H]2C[C@H]2c2ccccc2)C(=O)NC2(C(=O)N[C@H](C(=O)N[C@@H](C)C(=O)N[C@@H](CCCNC(=N)N)C(=O)N[C@@H](CCCCN)C(=O)N[C@@H](CO)C(=O)N[C@H](C(=O)O)[C@@H](C)O)[C@@H](C)O)C3CC4CC(C3)CC2C4)C2CC3CC(C2)CC1C3 (stereo partly drawn) [2c] (H-AR[X1][Lys((1R,2S)-2-Ph-cPr)][X1]TARKST-OH; C-terminus assumed) , thanks.
Key: 7.14

Exercise: pIC50 lookup needed for C[C@H](N)C(=O)N[C@@H](CCCNC(=N)N)C(=O)NC(C)(C)C(=O)N[C@@H](CCCCN[C@@H]1C[C@H]1c1ccccc1)C(=O)NC(C)(C)C(=O)N[C@H](C(=O)N[C@@H](C)C(=O)N[C@@H](CCCNC(=N)N)C(=O)N[C@@H](CCCCN)C(=O)N[C@@H](CO)C(=O)N[C@H](C(=O)O)[C@@H](C)O)[C@@H](C)O [peptide 2a] (H-AR[Aib][Lys((1R,2S)-2-Ph-cPr)][Aib]TARKST-OH; C-terminus assumed) , thanks.
Key: 7.05

----------
measuredOn: MAO-B (Homo sapiens, UniProt P27338)
Sequence (P27338 1-520): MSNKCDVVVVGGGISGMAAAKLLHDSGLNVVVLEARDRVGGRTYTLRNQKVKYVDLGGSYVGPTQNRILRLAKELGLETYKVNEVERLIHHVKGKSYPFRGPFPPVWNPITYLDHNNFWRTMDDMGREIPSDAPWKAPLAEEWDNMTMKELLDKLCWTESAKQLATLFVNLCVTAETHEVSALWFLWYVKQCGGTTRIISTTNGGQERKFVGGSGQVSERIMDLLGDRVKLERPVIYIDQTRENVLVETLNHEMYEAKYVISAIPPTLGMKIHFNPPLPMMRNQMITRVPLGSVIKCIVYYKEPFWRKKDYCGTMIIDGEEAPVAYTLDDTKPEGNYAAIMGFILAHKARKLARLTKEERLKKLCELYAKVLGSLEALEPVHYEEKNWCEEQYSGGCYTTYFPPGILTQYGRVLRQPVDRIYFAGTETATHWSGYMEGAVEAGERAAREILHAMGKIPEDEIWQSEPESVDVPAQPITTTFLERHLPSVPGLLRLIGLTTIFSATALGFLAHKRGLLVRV
pIC50: −log10 of the molar value. Where a SMILES comes first, the peptide text is derived from it. [ ]: non-standard residue; d: D form. Lys((1R,2S)-2-Ph-cPr) = N[C@@H](CCCCN[C@@H]1C[C@H]1c1ccccc1)C(=O)O; Ac6c = NC1(C(=O)O)CCCCC1
endpoint: pIC50

Exercise: pIC50 lookup needed for C[C@H](N)C(=O)N[C@@H](CCCNC(=N)N)C(=O)NC1(C(=O)N[C@@H](CCCCN[C@@H]2C[C@H]2c2ccccc2)C(=O)NC2(C(=O)N[C@H](C(=O)N[C@@H](C)C(=O)N[C@@H](CCCNC(=N)N)C(=O)N[C@@H](CCCCN)C(=O)N[C@@H](CO)C(=O)N[C@H](C(=O)O)[C@@H](C)O)[C@@H](C)O)CCCCC2)CCCCC1 [peptide 2b] (H-AR[Ac6c][Lys((1R,2S)-2-Ph-cPr)][Ac6c]TARKST-OH; C-terminus assumed) , thanks.
Key: < 5.00
